Reference source: PubChem BioAssay AID1963986

- Test system: 171881-019-R-J1-PDC tumor spheroid viability;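 note: spheroids exposed to compound for 7 days before viability read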
- procedure.text: Anticancer human tumor 171881-019-R-J1-PDC patient-derived invasive breast carcinoma cell line growth inhibition [PI3K]; active = viability on the fitted dose curve at most 10% of control; inactive = the rest
- measurement.conditions: second compound 0.316 µM; first compound 0.000316 µM; spheroids with HUVEC and MSC
// classify into T = active, F = inactive

[
  {
    "compound": "CC(=O)c1c(C)c2cnc(Nc3ccc(N4CCNCC4)cn3)nc2n(C2CCCC2)c1=O + COc1c(OCCCN2CCOCC2)ccc2c3n(c(=NC(=O)c4cnc(N)nc4)nc12)CCN3",
    "cat": "T"
  },
  {
    "compound": "Cn1ncnc1[C@H]1c2n[nH]c(=O)c3cc(F)cc(c23)N[C@@H]1c1ccc(F)cc1 + CC(Nc1ccc2c(c1)OCCn1cc(N3C(=O)OCC3C(F)F)nc1-2)C(N)=O",
    "cat": "F"
  },
  {
    "compound": "CC(C)n1nc(-c2ccc3oc(N)nc3c2)c2c(N)ncnc21 + Cc1nc(NC(=O)N2CCCC2C(N)=O)sc1-c1ccnc(C(C)(C)C(F)(F)F)c1",
    "cat": "F"
  }
]

Which outcome was assigned to CC(C)n1nc(-c2ccc3oc(N)nc3c2)c2c(N)ncnc21 + CC(Nc1ccc2c(c1)OCCn1cc(N3C(=O)OCC3C(F)F)nc1-2)C(N)=O in this test?
F

Which outcome was assigned to CC(C)n1nc(-c2ccc3oc(N)nc3c2)c2c(N)ncnc21 + CC(Nc1ncnc2nc[nH]c12)c1cc2cccc(Cl)c2c(=O)n1-c1ccccc1 in this test?
F

Which outcome was assigned to CC(C)n1nc(-c2ccc3oc(N)nc3c2)c2c(N)ncnc21 + COc1c(OCCCN2CCOCC2)ccc2c3n(c(=NC(=O)c4cnc(N)nc4)nc12)CCN3 in this test?
T
